Recorded abundance fitness by entry
B1: Ankyrin-2, residues 3571 to 3650; numbered along this chain, Q01484 (parent)
chain: ERLAYIADHLGFSWTELARELDFTEEQIHQIRIENPNSLQDQSHALLKYWLERDGKHATDTNLVECLTKINRMDIVHLME

- Variants of: B1
- experimental details: abundance fitness (aPCA) (normalised: wild type 0, dead -1); higher = more abundant; growth selection in yeast, the domain comes from the species named
- experimental context: Homo sapiens
The reply should be a number, written without any unit.

I33K = 0.058
I33W = -0.073
G55S = -0.045
E20Q = -0.169
G11Y = -0.123
G11W = -0.277

--- query ---
Given the entry "G55I" , report its measured abundance fitness.
-0.089

All values here come from the Human Domainome abundance scans (Beltran et al. 2025).
